Task for the reader: assign each of the following molecules its reported MRT last.
Test: Food-effect two-period crossover trial: plasma pharmacokinetics after a single 200 mg oral dose of Ginsenoside CK Tablets
Type: in vivo, human
Conditions: male, human, plasma, po, 200 mg, single oral 200 mg CK; HF
Number in h, nothing else.

Query: MRT last; subject: CC(C)=CCCC(C)(OC1OC(CO)C(O)C(O)C1O)C1CCC2(C)C1C(O)CC1C3(C)CCC(O)C(C)(C)C3CCC12C (centres unmarked)
12.4

Query: MRT last; subject: CC(C)=CCC[C@](C)(O)C1CC[C@]2(C)C1[C@H](O)CC1[C@@]3(C)CC[C@H](O)C(C)(C)C3CC[C@]12C (stereo partly drawn) [20(S)-PPD, 20(S)-protopanaxadiol]
30.2

----------
Task for the reader: assign each of the following compounds its reported MRT last.
Test: Food-effect two-period crossover trial: plasma pharmacokinetics after a single 200 mg oral dose of Ginsenoside CK Tablets
Type: in vivo, human
Conditions: female, human, plasma, po, 200 mg, single oral 200 mg CK; HF
Number in h, nothing else.

Query: MRT last; subject: CC(C)=CCCC(C)(OC1OC(CO)C(O)C(O)C1O)C1CCC2(C)C1C(O)CC1C3(C)CCC(O)C(C)(C)C3CCC12C (centres unmarked)
12.2

Query: MRT last; subject: CC(C)=CCC[C@](C)(O)C1CC[C@]2(C)C1[C@H](O)CC1[C@@]3(C)CC[C@H](O)C(C)(C)C3CC[C@]12C (stereo partly drawn) [20(S)-PPD, 20(S)-protopanaxadiol]
37.5

----------
Experiment: Food-effect two-period crossover trial: plasma pharmacokinetics after a single 200 mg oral dose of Ginsenoside CK Tablets
Type: in vivo, human
Conditions: male, human, plasma, po, 200 mg; single oral 200 mg CK; FO
MEASURED METRIC: AUC(0-t)
Provide a numeric answer, followed by its unit.

Query: AUC(0-t); subject: CC(C)=CCC[C@](C)(O)C1CC[C@]2(C)C1[C@H](O)CC1[C@@]3(C)CC[C@H](O)C(C)(C)C3CC[C@]12C (stereo partly drawn) [20(S)-PPD, 20(S)-protopanaxadiol]
120 ng·h/mL

Query: AUC(0-t); subject: CC(C)=CCCC(C)(OC1OC(CO)C(O)C(O)C1O)C1CCC2(C)C1C(O)CC1C3(C)CCC(O)C(C)(C)C3CCC12C (centres unmarked)
4750 ng·h/mL

----------
Experiment: Food-effect two-period crossover trial: plasma pharmacokinetics after a single 200 mg oral dose of Ginsenoside CK Tablets
Format: in vivo, human
Details: human, plasma, po, 200 mg, plasma; single oral 200 mg CK; FO (fasting overnight), all subjects; read-out: t1/2 (converted)
MEASURED METRIC: half-life (min)
Number in min, nothing else.

Query: half-life; subject: CC(C)=CCCC(C)(OC1OC(CO)C(O)C(O)C1O)C1CCC2(C)C1C(O)CC1C3(C)CCC(O)C(C)(C)C3CCC12C (centres unmarked)
1660

Query: half-life; subject: CC(C)=CCC[C@](C)(O)C1CC[C@]2(C)C1[C@H](O)CC1[C@@]3(C)CC[C@H](O)C(C)(C)C3CC[C@]12C (stereo partly drawn) [20(S)-PPD, 20(S)-protopanaxadiol]
1160

----------
Assay: Early clinical trial: sex differences of ginsenoside compound K pharmacokinetics (Supplementary Table 1)
Details: female, human, in vivo
MEASURED METRIC: half-life (h)
Number in h, nothing else.

Query: half-life; subject: CC(C)=CCCC(C)(OC1OC(CO)C(O)C(O)C1O)C1CCC2(C)C1C(O)CC1C3(C)CCC(O)C(C)(C)C3CCC12C (stereo not shown) [CK]
5.66

----------
Experiment: Food-effect two-period crossover trial: plasma pharmacokinetics after a single 200 mg oral dose of Ginsenoside CK Tablets
Assay type: in vivo, human
Details: human, plasma, po, 200 mg, single oral 200 mg CK; HF, all subjects
Task for the reader: assign each of the following molecules its reported MRT inf.
Provide a numeric answer, followed by its unit.

Query: MRT inf; subject: CC(C)=CCC[C@](C)(O)C1CC[C@]2(C)C1[C@H](O)CC1[C@@]3(C)CC[C@H](O)C(C)(C)C3CC[C@]12C (stereo partly drawn) [20(S)-PPD, 20(S)-protopanaxadiol]
45.1 h

Query: MRT inf; subject: CC(C)=CCCC(C)(OC1OC(CO)C(O)C(O)C1O)C1CCC2(C)C1C(O)CC1C3(C)CCC(O)C(C)(C)C3CCC12C (centres unmarked)
14.6 h

----------
Task for the reader: assign each of the following compounds its reported MRT last.
Assay: Food-effect two-period crossover trial: plasma pharmacokinetics after a single 200 mg oral dose of Ginsenoside CK Tablets
Type: in vivo, human
Details: human, plasma, po, 200 mg, single oral 200 mg CK; FO, all subjects
Description: The food-effect trial was an open-label, randomized, two-period, two-treatment crossover trial, carried out from 15 January to 31 March 2015. […] Descriptive statistics of PK parameters were calculated using established non-compartmental methods, utilizing the WinNonLin version 6.1 software (Pharsight Corporation, USA). […] The values of AUC were calculated using conventional trapezoidal and log-trapezoidal methods and the extrapolated area (Rowland and Tozer, [1995]). […]
Provide a numeric answer, followed by its unit.

Query: MRT last; subject: CC(C)=CCCC(C)(OC1OC(CO)C(O)C(O)C1O)C1CCC2(C)C1C(O)CC1C3(C)CCC(O)C(C)(C)C3CCC12C (centres unmarked) [CK]
11.7 h

Query: MRT last; subject: CC(C)=CCC[C@](C)(O)C1CC[C@]2(C)C1[C@H](O)CC1[C@@]3(C)CC[C@H](O)C(C)(C)C3CC[C@]12C (stereo partly drawn) [20(S)-PPD, 20(S)-protopanaxadiol]
31.7 h

----------
Experiment: Food-effect two-period crossover trial: plasma pharmacokinetics after a single 200 mg oral dose of Ginsenoside CK Tablets
Type: in vivo, human
Conditions: female, human, plasma, po, 200 mg, single oral 200 mg CK; FO
Description: The food-effect trial was an open-label, randomized, two-period, two-treatment crossover trial, carried out from 15 January to 31 March 2015. […] Descriptive statistics of PK parameters were calculated using established non-compartmental methods, utilizing the WinNonLin version 6.1 software (Pharsight Corporation, USA). […] The values of AUC were calculated using conventional trapezoidal and log-trapezoidal methods and the extrapolated area (Rowland and Tozer, [1995]). […]
MEASURED METRIC: MRT inf (h)
Number in h, nothing else.

Query: MRT inf; subject: CC(C)=CCCC(C)(OC1OC(CO)C(O)C(O)C1O)C1CCC2(C)C1C(O)CC1C3(C)CCC(O)C(C)(C)C3CCC12C (centres unmarked) [CK]
14.5

Query: MRT inf; subject: CC(C)=CCC[C@](C)(O)C1CC[C@]2(C)C1[C@H](O)CC1[C@@]3(C)CC[C@H](O)C(C)(C)C3CC[C@]12C (stereo partly drawn) [20(S)-PPD, 20(S)-protopanaxadiol]
40.7

----------
Assay: Food-effect two-period crossover trial: plasma pharmacokinetics after a single 200 mg oral dose of Ginsenoside CK Tablets
Format: in vivo, human
Settings: human, plasma, po, 200 mg, plasma; single oral 200 mg CK; HF (high-fat meal), all subjects; read-out: t1/2 (converted)
MEASURED METRIC: half-life

Query: half-life; subject: CC(C)=CCC[C@](C)(O)C1CC[C@]2(C)C1[C@H](O)CC1[C@@]3(C)CC[C@H](O)C(C)(C)C3CC[C@]12C (stereo partly drawn) [20(S)-PPD, 20(S)-protopanaxadiol]
21.2 h

Query: half-life; subject: CC(C)=CCCC(C)(OC1OC(CO)C(O)C(O)C1O)C1CCC2(C)C1C(O)CC1C3(C)CCC(O)C(C)(C)C3CCC12C (centres unmarked)
24.8 h

----------
Assay: Early clinical trial: sex differences of ginsenoside compound K pharmacokinetics (Supplementary Table 1)
Details: male, human, in vivo
MEASURED METRIC: AUC(0-t) (ng·h/mL)
Number in ng·h/mL, nothing else.

Query: AUC(0-t); subject: CC(C)=CCCC(C)(OC1OC(CO)C(O)C(O)C1O)C1CCC2(C)C1C(O)CC1C3(C)CCC(O)C(C)(C)C3CCC12C (stereo not shown)
3600

----------
Test: Food-effect two-period crossover trial: plasma pharmacokinetics after a single 200 mg oral dose of Ginsenoside CK Tablets
Type: in vivo, human
Details: human, plasma, po, 200 mg, median (range); single oral 200 mg CK; FO, all subjects
MEASURED METRIC: Tmax (h)
Number in h, nothing else.

Query: Tmax; subject: CC(C)=CCC[C@](C)(O)C1CC[C@]2(C)C1[C@H](O)CC1[C@@]3(C)CC[C@H](O)C(C)(C)C3CC[C@]12C (stereo partly drawn) [20(S)-PPD, 20(S)-protopanaxadiol]
24.5

Query: Tmax; subject: CC(C)=CCCC(C)(OC1OC(CO)C(O)C(O)C1O)C1CCC2(C)C1C(O)CC1C3(C)CCC(O)C(C)(C)C3CCC12C (centres unmarked)
3.6
